Test Method Notes: in vivo
Run Parameters: Sprague-Dawley, rat, plasma, po, 2 mg/kg

# Compound, AUC [µM·h]
measured = [
    ("Cc1nc2cnc3[nH]ccc3c2n1[C@H]1CC[C@H](NCCC#N)CC1", 0.18),
    ("Cc1nc2cnc3[nH]ccc3c2n1C1CCNCC1", 0.12),
    ("COC(=O)N[C@H]1CC[C@H](n2c(C)nc3cnc4[nH]ccc4c32)CC1", 1.4),
    ("Cc1nc2cnc3[nH]ccc3c2n1[C@@H]1CCNC[C@H]1F (relative stereo)", 5.3),
]

Where these numbers come from: ChEMBL document CHEMBL2157937
